Reference for the values: patent US4073892A

Target: thrombin (Bos taurus)
Construct: purchased Mochida Pharmaceutical Co., Ltd
Assay: fibrinogen coagulation time (antithrombotic activity)
Type: biochemical
Details: bovine fibrinogen, thrombin solution 5 units/ml, borate saline buffer pH 7.4, 25° C; normal coagulation time 50-55 seconds
readout: Concentration Required to Prolong The Coagulation Time By A Factor of Two (µM)

Query: Provide the documented Concentration Required to Prolong The Coagulation Time By A Factor of Two with thrombin (Bos taurus) as the system for `COCCN(CCCC(=O)O)C(=O)[C@H](CCCNC(=N)N)NS(=O)(=O)c1ccc2cc(OC)c(OC)cc2c1`
Reply: 2.5

Query: Provide the documented Concentration Required to Prolong The Coagulation Time By A Factor of Two with thrombin (Bos taurus) as the system for COc1cc2ccc(S(=O)(=O)N[C@@H](CCCNC(=N)N)C(=O)N(CC(=O)O)CC(C)OC)cc2cc1OC (stereo partly shown)
Reply: 6.5

Query: Provide the documented Concentration Required to Prolong The Coagulation Time By A Factor of Two with thrombin (Bos taurus) as the system for `COc1cc2ccc(S(=O)(=O)N[C@@H](CCCNC(=N)N)C(=O)N(CC(=O)O)CC(C)C)cc2cc1OC`
Reply: 2

Query: Provide the documented Concentration Required to Prolong The Coagulation Time By A Factor of Two with thrombin (Bos taurus) as the system for COc1ccc2ccc(S(=O)(=O)N[C@@H](CCCNC(=N)N)C(=O)N(CC[S+](C)[O-])CC(=O)O)cc2c1 (stereo partly shown)
Reply: 6.5

Query: Provide the documented Concentration Required to Prolong The Coagulation Time By A Factor of Two with thrombin (Bos taurus) as the system for `COCCN(CC(=O)Oc1cccc(C)c1)C(=O)[C@H](CCCNC(=N)N)NS(=O)(=O)c1ccc2cc(OC)c(OC)cc2c1`
Reply: 20

P = CCCCN(CC(=O)O)C(=O)[C@H](CCCNC(=N)N)NS(=O)(=O)c1ccc2ccc(OC)cc2c1
Q = COCCN(CC(=O)O)C(=O)[C@H](CCCNC(=N)N)NS(=O)(=O)c1cccc2c(OC)cccc12
Query: Form: Entry with minimum Concentration Required to Prolong The Coagulation Time By A Factor of Two (choose one): P / Q // respond with label for picked entry
Reply: P
